Recorded TGI, one value per entry.
system: T-47D breast; experiment: NCI tumour cell line growth inhibition, 48 h

{"mol": "NCCN(CCN)/[N+]([O-])=N/O", "result": "> 100 µM"}
{"mol": "COc1cc(O)c2c(=O)c(OC)c(-c3ccc(OC)c(OC)c3)oc2c1.[Sn]", "result": "> 100 µM"}
{"mol": "CCOC(=O)[C@H](CO)Nc1c(O)c2c(c(O)c1Cl)C(=O)C=CC2=O", "result": "> 10 µM"}
{"mol": "O=[N+]([O-])c1ccc2c(N=Nc3ccc4ccccc4c3O)c(O)cc(S(=O)(=O)O)c2c1", "result": "> 100 µM"}

For reference, reported TGI for "CC(C)(/C=N/O)/[N+]([O-])=C/c1ccccc1" stands at > 100 µM

Note to self: TGI recorded for "CCc1n[nH]c(=O)n1N=C(c1ccccc1)c1ccccc1" was > 100 µM

Taken from PubChem BioAssay (NCI).
